Tested on: OVCAR-3 ovarian
assay name: NCI-60 one-dose screen, 48 h
run parameters: 10 µM unless noted
Procedure: Growth inhibition of the OVCAR-3 human tumor cell line is measured as a screen for anti-cancer activity. Cells are grown in 96 well plates and exposed to the test compound for 48 hours. Compounds are tested at a single concentration, which is 10^-5 M for most compounds. The reported endpoint is percent growth (GI% or GIPRCNT), where numbers from 0 - 100% represent growth inhibition, and numbers from -100% - 0 represent cell death. For example, a value of 40 represents 60% growth inhibition. […]
About 83,000 compounds went through this panel and 20% of them were active in at least one assay; those are over-represented in the sample as a whole. Calls of active or inactive are those of the source. How the source made its calls: active means growth percent below 10; inactive means the rest.
API: response.call in active, inactive

Reference set, count: 3
compound	assigned category
Oc1c(Br)cc(Br)c2ccc(Cn3cc(-c4ccc(C(F)(F)F)cc4)nn3)nc12	active
COc1cc(-c2nc3sccn3c2-c2ccnc(NCCNS(=O)(=O)c3ccccc3)n2)ccc1F	inactive
CCc1ccccc1-n1c(-c2ccc(OC)cc2)cc(-c2ccc(OC)cc2)c(C#N)c1=O	inactive

Now turn to the next compound.
Query: In this assay, the call recorded for C=C(C)[C@@H]1CC[C@]2(C(=O)O)CC[C@]3(C)[C@H](CC[C@@H]4[C@@]5(C)CCC(NC(=O)c6cccc(OC(C)=O)c6OC(C)=O)C(C)(C)[C@@H]5CC[C@]43C)[C@@H]12 (some centres undefined) was what?
Result: inactive

----------
Tested on: BT-549 breast
assay name: NCI-60 one-dose screen, 48 h (100 = growth as untreated, 0 = no growth, -100 = all killed)
run parameters: 10 µM unless noted
About 83,000 compounds went through this panel and 20% of them were active in at least one assay; those are over-represented in the sample as a whole.
experimental readout: growth (%)
Answers are plain numbers, in %.

Would you please look over these solved cases?
compound	assay value
COc1cc2c(c(OC)c1OC)CCC(c1cccc(C(=O)Nc3ccc(C#N)cc3)c1)O2 (stereo not given)	27.2
CC1=C([Se]CC(OC(=O)CC[Se]c2ccccc2)C(=O)NC(C)(C)C)C(=O)c2ccccc2C1=O (stereo not given)	-89
O=C(NNC(=O)c1ccc(NC(=O)c2ccccn2)cc1)Nc1ccc([N+](=O)[O-])cc1	94.6
CC(=O)N1N=C(c2ccc(C(F)(F)F)c(F)c2)CC1c1[nH]c(C)c(C(=O)NCC(F)(F)F)c1C (stereo not given)	89.9

Query: Value lookup for growth; key = "O=C(/C=C/c1cccc(Cl)c1)c1cccc(OCCCOc2cccc(C(=O)/C=C/c3cccc(Cl)c3)c2)c1"
Result: 90.2

----------
Test system: TK-10 renal
assay name: NCI-60 one-dose screen, 48 h
run parameters: 10 µM unless noted
About 83,000 compounds went through this panel and 20% of them were active in at least one assay; those are over-represented in the sample as a whole. Calls of active or inactive are those of the source. How the source made its calls: active means growth percent below 10; inactive means the rest.
API: response.call in yes = active, no = inactive

compound	study system	assigned category
COc1ccc(\C=N/N=C(N)/C(N)=N\N=C/c2ccc(OC)cc2)cc1	TK-10 renal	no
CCOCCNC1=C(Cl)C(=O)c2ccccc2C1=O	TK-10 renal	no
CC(C)=CC(=O)OCC(=O)O[C@@H]1C[C@]2(C(C)C)O[C@@]1(C)[C@@H]1CC[C@@H](C)[C@H]1[C@@H]2OC(=O)/C=C/c1ccccc1	TK-10 renal	no
CCCCCN1C(=O)/C(=c2\sc3n(c2=O)C2C(NN=3)N(CC)C(=O)N2CC)c2ccccc21 (centres undefined)	TK-10 renal	no
N#CSc1c[nH]c2cccc(/C=C/C(=O)/C=C(/C=C/c3cccc4[nH]cc(SC#N)c34)OB(F)F)c12	TK-10 renal	yes
O=C(O)c1ccc(-n2cc(/C=N/Nc3ccccc3)c(-c3ccc(F)cc3F)n2)cc1	TK-10 renal	no

Query: In this assay, the call recorded for "COc1ccc(/C=C/C(=O)c2ccc(Nc3ccnc4cc(Cl)ccc34)cc2)cc1" was what?
Result: no

Query: In this assay, the call recorded for "Cn1cc(-c2csc(-c3c[nH]c4ccc(Br)cc34)n2)c2ccnc(Cl)c21" was what?
Result: no

Query: In this assay, the call recorded for "Oc1c(I)cc(I)cc1CNCCN(Cc1ccccn1)Cc1ccccn1" was what?
Result: yes
